Assay: Biodistribution of 177Lu-labeled αMSH analogues in mice bearing B16F10 mouse melanoma
Type: in vivo, C57BL/6J mice
Conditions: male, mouse, testes, iv, total radioactivity; 1 h p.i., C57BL/6J mice, B16F10 melanoma; read-out: Biodistribution, Testes

Compound | tissue uptake at 1 h [%ID/g]
CCCC[C@H](NC(=O)CN1CCC(NC(=O)CN2CCN(CC(=O)O)CCN(CC(=O)O)CCN(CC(=O)O)CC2)CC1)C(=O)N[C@H]1CC(=O)NCCCC[C@@H](C(N)=O)NC(=O)[C@H](Cc2c[nH]c3ccccc23)NC(=O)[C@H](CCCNC(=N)N)NC(=O)[C@@H](Cc2ccccc2)NC(=O)[C@H](Cc2c[nH]cn2)NC1=O [^177Lu-labeled CCZ01048, metal not drawn, reference compound] | 0.27
CCCC[C@H](NC(=O)CN1CCC(NC(=O)CN2CCN(CC(=O)O)CCN(CC(=O)O)CCN(CC(=O)O)CC2)CC1)C(=O)N[C@H]1CC(=O)NCCCC[C@@H](C(N)=O)N(C)C(=O)[C@H](Cc2c[nH]c3ccccc23)NC(=O)[C@H](CCCNC(=N)N)N(C)C(=O)[C@@H](Cc2ccccc2)NC(=O)[C@H](Cc2c[nH]cn2)NC1=O [^177Lu-labeled CCZ01106, metal not drawn] | 0.17

* * *

Experiment: Biodistribution of 177Lu-labeled αMSH analogues in mice bearing SK-MEL-1 human melanoma
Conditions: male, NRG (NOD.Cg-Rag1tm1Mom Il2rgtm1Wjl/SzJ), mouse, muscle, total radioactivity
# tissue uptake at 24 h annotations

Compound | tissue uptake at 24 h, %ID/g
CCCC[C@H](NC(=O)CN1CCC(NC(=O)[C@H](CCCCNC(=O)CN2CCN(CC(=O)O)CCN(CC(=O)O)CCN(CC(=O)O)CC2)NC(=O)CNC(=O)CCCc2ccc(-c3ccc(C)cc3)cc2)CC1)C(=O)N[C@H]1CC(=O)NCCCC[C@@H](C(N)=O)N(C)C(=O)[C@H](Cc2c[nH]c3ccccc23)NC(=O)[C@H](CCCNC(=N)N)N(C)C(=O)[C@@H](Cc2ccccc2)NC(=O)[C@H](Cc2c[nH]cn2)NC1=O [^177Lu-labeled CCZ01158, metal not drawn] | 0.13
CCCC[C@H](NC(=O)CN1CCC(NC(=O)[C@H](CCCCNC(=O)CN2CCN(CC(=O)O)CCN(CC(=O)O)CCN(CC(=O)O)CC2)NC(=O)CNC(=O)CCCc2ccc(I)cc2)CC1)C(=O)N[C@H]1CC(=O)NCCCC[C@@H](C(N)=O)N(C)C(=O)[C@H](Cc2c[nH]c3ccccc23)NC(=O)[C@H](CCCNC(=N)N)N(C)C(=O)[C@@H](Cc2ccccc2)NC(=O)[C@H](Cc2c[nH]cn2)NC1=O [^177Lu-labeled CCZ01148, metal not drawn] | 1.5
CCCC[C@H](NC(=O)CN1CCC(NC(=O)[C@H](CCCCNC(=O)CN2CCN(CC(=O)O)CCN(CC(=O)O)CCN(CC(=O)O)CC2)NC(=O)[C@H](CCC(=O)O)NC(=O)CCCc2ccc(I)cc2)CC1)C(=O)N[C@H]1CC(=O)NCCCC[C@@H](C(N)=O)N(C)C(=O)[C@H](Cc2c[nH]c3ccccc23)NC(=O)[C@H](CCCNC(=N)N)N(C)C(=O)[C@@H](Cc2ccccc2)NC(=O)[C@H](Cc2c[nH]cn2)NC1=O [^177Lu-labeled CCZ01118, metal not drawn] | 0.05

* * *

Experiment: Biodistribution of 68Ga-labeled peptide in mice bearing B16F10 mouse melanoma
Assay type: in vivo, C57BL/6J mice
Details: bone, iv, total radioactivity, 2 h p.i. unblocked, C57BL/6J mice, B16F10 melanoma, read-out: Biodistribution, Bone

Compound | tissue uptake at 2 h [%ID/g]
CCCC[C@H](NC(=O)CN1CCC(NC(=O)CN2CCN(CC(=O)O)CCN(CC(=O)O)CCN(CC(=O)O)CC2)CC1)C(=O)N[C@H]1CC(=O)NCCCC[C@@H](C(N)=O)N(C)C(=O)[C@H](Cc2c[nH]c3ccccc23)N(C)C(=O)[C@H](CCCNC(=N)N)N(C)C(=O)[C@@H](Cc2ccccc2)NC(=O)[C@H](Cc2c[nH]cn2)N(C)C1=O [^68Ga-labeled CCZ01099, metal not drawn] | 0.1

* * *

Test: Biodistribution of 177Lu-labeled αMSH analogues in mice bearing B16F10 mouse melanoma
Format: in vivo, C57BL/6J mice
Conditions: mouse, blood, iv, total radioactivity; 24 h p.i., C57BL/6J mice, B16F10 melanoma; read-out: Biodistribution, Blood
Description: The B16-F10 mouse melanoma cells were cultured and inoculated in mice as described in Example 1. For biodistribution studies, approximately 1-2 MBq of ^177Lu-labeled αMSH analogues via tail vein under anesthesia. At 1, 4, 24, and 120 h p.i., the mice were euthanized by CO2 inhalation. Organs/tissues were harvested and the radioactivity was measured as described in Example 1.

Molecule | tissue uptake at 24 h
CCCC[C@H](NC(=O)CN1CCC(NC(=O)[C@H](CCCCNC(=O)CN2CCN(CC(=O)O)CCN(CC(=O)O)CCN(CC(=O)O)CC2)NC(=O)[C@H](CCC(=O)O)NC(=O)CCCc2ccc(I)cc2)CC1)C(=O)N[C@H]1CC(=O)NCCCC[C@@H](C(N)=O)NC(=O)[C@H](Cc2c[nH]c3ccccc23)NC(=O)[C@H](CCCNC(=N)N)NC(=O)[C@@H](Cc2ccccc2)NC(=O)[C@H](Cc2c[nH]cn2)NC1=O [^177Lu-labeled CCZ01082, metal not drawn] | 0.33 %ID/g
CCCC[C@H](NC(=O)CN1CCC(NC(=O)[C@H](CCCCNC(=O)CN2CCN(CC(=O)O)CCN(CC(=O)O)CCN(CC(=O)O)CC2)NC(=O)[C@H](CCC(=O)O)NC(=O)CCCc2ccc(I)cc2)CC1)C(=O)N[C@H]1CC(=O)NCCCC[C@@H](C(N)=O)N(C)C(=O)[C@H](Cc2c[nH]c3ccccc23)N(C)C(=O)[C@H](CCCNC(=N)N)N(C)C(=O)[C@@H](Cc2ccccc2)NC(=O)[C@H](Cc2c[nH]cn2)N(C)C1=O [^177Lu-labeled CCZ01088, metal not drawn] | 0.09 %ID/g
CCCC[C@H](NC(=O)CN1CCC(NC(=O)[C@H](CCCCNC(=O)CN2CCN(CC(=O)O)CCN(CC(=O)O)CCN(CC(=O)O)CC2)NC(=O)[C@H](CCC(=O)O)NC(=O)CCCc2ccc(I)cc2)CC1)C(=O)N[C@H]1CC(=O)NCCCC[C@@H](C(N)=O)N(C)C(=O)[C@H](Cc2c[nH]c3ccccc23)NC(=O)[C@H](CCCNC(=N)N)N(C)C(=O)[C@@H](Cc2ccccc2)NC(=O)[C@H](Cc2c[nH]cn2)NC1=O [^177Lu-labeled CCZ01118, metal not drawn] | 0.05 %ID/g
CCCC[C@H](NC(=O)CN1CCC(NC(=O)CN2CCN(CC(=O)O)CCN(CC(=O)O)CCN(CC(=O)O)CC2)CC1)C(=O)N[C@H]1CC(=O)NCCCC[C@@H](C(N)=O)N(C)C(=O)[C@H](Cc2c[nH]c3ccccc23)N(C)C(=O)[C@H](CCCNC(=N)N)N(C)C(=O)[C@@H](Cc2ccccc2)NC(=O)[C@H](Cc2c[nH]cn2)N(C)C1=O [^177Lu-labeled CCZ01099, metal not drawn] | 0.01 %ID/g

* * *

Test: Biodistribution of 177Lu-labeled αMSH analogues in mice bearing B16F10 mouse melanoma
Assay type: in vivo, C57BL/6J mice
Conditions: mouse, tumour/muscle, iv, total radioactivity; 4 h p.i., C57BL/6J mice, B16F10 melanoma; read-out: Tumour/muscle
Measured Parameter: tissue to tissue ratio at 4 h

Compound | Measured Parameter | Result Number
CCCC[C@H](NC(=O)CN1CCC(NC(=O)[C@H](CCCCNC(=O)CN2CCN(CC(=O)O)CCN(CC(=O)O)CCN(CC(=O)O)CC2)NC(=O)[C@H](CCC(=O)O)NC(=O)CCCc2ccc(I)cc2)CC1)C(=O)N[C@H]1CC(=O)NCCCC[C@@H](C(N)=O)N(C)C(=O)[C@H](Cc2c[nH]c3ccccc23)N(C)C(=O)[C@H](CCCNC(=N)N)N(C)C(=O)[C@@H](Cc2ccccc2)NC(=O)[C@H](Cc2c[nH]cn2)N(C)C1=O [^177Lu-labeled CCZ01088, metal not drawn] | tissue to tissue ratio at 4 h | 65.4
CCCC[C@H](NC(=O)CN1CCC(NC(=O)[C@H](CCCCNC(=O)CN2CCN(CC(=O)O)CCN(CC(=O)O)CCN(CC(=O)O)CC2)NC(=O)[C@H](CCC(=O)O)NC(=O)CCCc2ccc(I)cc2)CC1)C(=O)N[C@H]1CC(=O)NCCCC[C@@H](C(N)=O)NC(=O)[C@H](Cc2c[nH]c3ccccc23)NC(=O)[C@H](CCCNC(=N)N)NC(=O)[C@@H](Cc2ccccc2)NC(=O)[C@H](Cc2c[nH]cn2)NC1=O [^177Lu-labeled CCZ01082, metal not drawn] | tissue to tissue ratio at 4 h | 57.7
CCCC[C@H](NC(=O)CN1CCC(NC(=O)[C@H](CCCCNC(=O)CN2CCN(CC(=O)O)CCN(CC(=O)O)CCN(CC(=O)O)CC2)NC(=O)[C@H](CCC(=O)O)NC(=O)CCCc2ccc(I)cc2)CC1)C(=O)N[C@H]1CC(=O)NCCCC[C@@H](C(N)=O)N(C)C(=O)[C@H](Cc2c[nH]c3ccccc23)NC(=O)[C@H](CCCNC(=N)N)N(C)C(=O)[C@@H](Cc2ccccc2)NC(=O)[C@H](Cc2c[nH]cn2)NC1=O [^177Lu-labeled CCZ01118, metal not drawn] | tissue to tissue ratio at 4 h | 194
CCCC[C@H](NC(=O)CN1CCC(NC(=O)CN2CCN(CC(=O)O)CCN(CC(=O)O)CCN(CC(=O)O)CC2)CC1)C(=O)N[C@H]1CC(=O)NCCCC[C@@H](C(N)=O)NC(=O)[C@H](Cc2c[nH]c3ccccc23)NC(=O)[C@H](CCCNC(=N)N)NC(=O)[C@@H](Cc2ccccc2)NC(=O)[C@H](Cc2c[nH]cn2)NC1=O [^177Lu-labeled CCZ01048, metal not drawn, reference compound] | tissue to tissue ratio at 4 h | 561
CCCC[C@H](NC(=O)CN1CCC(NC(=O)CN2CCN(CC(=O)O)CCN(CC(=O)O)CCN(CC(=O)O)CC2)CC1)C(=O)N[C@H]1CC(=O)NCCCC[C@@H](C(N)=O)N(C)C(=O)[C@H](Cc2c[nH]c3ccccc23)NC(=O)[C@H](CCCNC(=N)N)N(C)C(=O)[C@@H](Cc2ccccc2)NC(=O)[C@H](Cc2c[nH]cn2)NC1=O [^177Lu-labeled CCZ01106, metal not drawn] | tissue to tissue ratio at 4 h | 452
